Target: T1, recombinant human TNFR2-Fc protein (Sino Biological) (human, UniProt P20333 23-257, limits assumed)
T1 construct: bought; also called human TNFR2 protein; not shown: Fc part of the bought fusion protein; not described
T1 sequence (looked up): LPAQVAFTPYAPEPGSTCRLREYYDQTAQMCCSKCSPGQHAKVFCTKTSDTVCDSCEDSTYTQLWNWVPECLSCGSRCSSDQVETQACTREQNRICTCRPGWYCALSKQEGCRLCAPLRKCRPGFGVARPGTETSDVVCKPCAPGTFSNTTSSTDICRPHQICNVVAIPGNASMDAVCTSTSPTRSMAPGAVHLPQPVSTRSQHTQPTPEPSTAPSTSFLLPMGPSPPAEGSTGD
Assay: ELISA, coated TNFR2-Fc
Answer each item with its documented EC50.
State the answer as a number, implicitly in nM.

Note to self: EC50 recorded for 005-B02 (antibody, V domains shown, IgG) VH: EVQLLESGGGLVQPGGSLRLSCAASGFTFSDYYMSWIRQAPGKGLEWVALIWYDGGNEYYADSVKGRFTISRDNSKNTLYLQMNSLRAEDTAVYYCVRETGNYGMDVWGQGTLVTVSS VL: QSVLTQPPSASGTPGQRVTISCTGSSSNIGAGYDVHWYQQLPGTAPKLLIYRNNQRPSGVPDRFSGSKSGTSASLAISGLRSEDEADYYCATWDDRVNGPVFGGGTKLTVLG was 0.15

Note to self: EC50 recorded for 001-C03 (antibody, V domains shown, IgG; also called 1-003; 001-0O3) VH: EVQLLESGGGLVQPGGSLRLSCAASGFTFSNAWMSWVRQAPGKGLEWVSAISVSGINTYYADSVKGRFTISRDNSKNTLYLQMNSLRAEDTAVYYCARDTGSLGVDYWGQGTLVTVSS VL: QSVLTQPPSASGTPGQRVTISCSGSSSNIGSNTVNWYQQLPGTAPKLLIYRNNQRPSGVPDRFSGSKSGTSASLAISGLRSEDEADYYCQSYDSSLSISVFGGGTKLTVLG was 0.75

Note to self: EC50 recorded for 001-G10 (antibody, V domains shown, IgG) VH: EVQLLESGGGLVQPGGSLRLSCAASGFTFSAYGMHWVRQAPGKGLEWVAVVSYDGREKHYADSVKGRFTISRDNSKNTLYLQMNSLRAEDTAVYYCARSDGGYDSDSGYYWGQGTLVTVSS VL: QSVLTQPPSASGTPGQRVTISCSGSTSNIGSNFVYWYQQLPGTAPKLLIYDNNKRPSGVPDRFSGSKSGTSASLAISGLRSEDEADYYCSSYAYSDNILFGGGTKLTVLG was 0.29

Note to self: EC50 recorded for 001-H10 (antibody, V domains shown, IgG) VH: EVQLLESGGGLVQPGGSLRLSCAASGFTFDDYGMSWVRQAPGKGLEWVSVIYSGGSTYYADSVKGRFTISRDNSKNTLYLQMNSLRAEDTAVYYCARDRSSSWYRDGMDVWGQGTLVTVSS VL: QSVLTQPPSASGTPGQRVTISCTGSSSNIGAGYDVHWYQQLPGTAPKLLIYGNSNRPSGVPDRFSGSKSGTSASLAISGLRSEDEADYYCAAWDDSLSGWVFGGGTKLTVLG was 0.29

Note to self: EC50 recorded for 001-F06 (antibody, V domains shown, IgG) VH: EVQLLESGGGLVQPGGSLRLSCAASGFTFSSYAMHWVRQAPGKGLEWVSAISGGATTTYYADSVKGRFTISRDNSKNTLYLQMNSLRAEDTAVYYCAKGGTGDPYYFDYWGQGTLVTVSS VL: QSVLTQPPSASGTPGQRVTISCTGSSSNIGAGYDVHWYQQLPGTAPKLLIYRNNQRPSGVPDRFSGSKSGTSASLAISGLRSEDEADYYCAARDDGLSGPVFGGGTKLTVLG was 0.15
